- target: UniProtKB P31389
- Sequence (P31389 whole entry): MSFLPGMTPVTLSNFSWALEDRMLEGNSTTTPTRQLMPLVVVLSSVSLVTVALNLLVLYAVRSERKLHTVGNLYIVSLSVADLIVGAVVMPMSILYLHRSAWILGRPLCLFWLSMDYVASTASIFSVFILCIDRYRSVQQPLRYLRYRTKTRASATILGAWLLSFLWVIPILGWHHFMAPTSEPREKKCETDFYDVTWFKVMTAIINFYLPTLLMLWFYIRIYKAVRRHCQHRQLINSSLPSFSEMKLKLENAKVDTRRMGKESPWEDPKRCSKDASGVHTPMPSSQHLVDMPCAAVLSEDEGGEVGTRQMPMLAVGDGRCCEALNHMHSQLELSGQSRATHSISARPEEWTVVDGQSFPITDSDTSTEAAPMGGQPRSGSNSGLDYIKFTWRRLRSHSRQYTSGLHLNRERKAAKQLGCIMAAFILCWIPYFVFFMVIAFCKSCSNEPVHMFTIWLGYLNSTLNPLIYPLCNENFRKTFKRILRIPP
observable: pKi
In textbook form, pKi equals minus log to base ten of the concentration in mol/L.

Data request: Recall the reported pKi of `CCCCN1CCC(COC(=O)c2cc(Cl)c(NC)c3c2OCCO3)CC1` when tested on UniProtKB P31389.
Data returned: 5.56

====

Protein target, amino acids: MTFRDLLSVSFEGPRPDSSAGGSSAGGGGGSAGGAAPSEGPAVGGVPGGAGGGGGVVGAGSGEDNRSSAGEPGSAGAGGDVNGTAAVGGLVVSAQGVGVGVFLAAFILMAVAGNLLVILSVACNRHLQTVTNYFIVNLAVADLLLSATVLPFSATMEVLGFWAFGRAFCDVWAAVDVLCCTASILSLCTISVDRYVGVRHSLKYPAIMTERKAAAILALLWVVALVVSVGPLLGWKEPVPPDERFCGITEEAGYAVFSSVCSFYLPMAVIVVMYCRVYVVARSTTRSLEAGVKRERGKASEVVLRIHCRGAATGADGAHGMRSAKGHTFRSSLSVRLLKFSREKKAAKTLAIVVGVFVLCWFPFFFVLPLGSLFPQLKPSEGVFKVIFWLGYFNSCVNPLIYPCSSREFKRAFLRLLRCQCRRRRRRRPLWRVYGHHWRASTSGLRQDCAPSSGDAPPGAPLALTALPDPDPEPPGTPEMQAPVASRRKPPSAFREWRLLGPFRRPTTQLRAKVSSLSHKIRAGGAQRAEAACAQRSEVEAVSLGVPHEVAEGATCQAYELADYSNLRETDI
observable: pKi
On this scale, pKi is minus log10 of a concentration expressed in M (mol/L).

Data request: Could you please provide reported pKi for `CCCCN1CCC(COC(=O)c2cc(Cl)c(NC)c3c2OCCO3)CC1` ? Thanks!
Data returned: 5.64

====

Reported Ki values are given for each entry in this list.
- target: Alpha-1A adrenergic receptor (Homo sapiens)
- Sequence (P35348 whole entry): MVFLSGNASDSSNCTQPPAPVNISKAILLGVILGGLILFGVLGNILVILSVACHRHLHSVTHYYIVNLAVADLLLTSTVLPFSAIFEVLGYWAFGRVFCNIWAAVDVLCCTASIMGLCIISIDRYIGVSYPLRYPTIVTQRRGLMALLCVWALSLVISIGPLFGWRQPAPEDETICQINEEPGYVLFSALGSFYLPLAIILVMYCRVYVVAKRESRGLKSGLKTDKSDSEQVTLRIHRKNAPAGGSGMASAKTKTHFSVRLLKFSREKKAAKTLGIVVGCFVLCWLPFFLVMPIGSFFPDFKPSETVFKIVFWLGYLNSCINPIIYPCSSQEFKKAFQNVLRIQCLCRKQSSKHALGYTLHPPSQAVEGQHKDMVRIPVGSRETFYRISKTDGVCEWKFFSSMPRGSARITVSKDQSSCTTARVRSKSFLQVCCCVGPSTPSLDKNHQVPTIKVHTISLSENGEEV
Quick reminder: number only, in µM, skip the unit.

CCCCN1CCC(COC(=O)c2cc(Cl)c(NC)c3c2OCCO3)CC1 | 0.522

Okay, next one:
Data request: State recorded Ki with Alpha-1A adrenergic receptor (Homo sapiens), entry `CCCCN1CCC(COC(=O)c2cc(F)c(N)c3c2OCCO3)CC1` , no comment.
Data returned: 0.0876

====

- target: Alpha-2B adrenergic receptor (Homo sapiens)
- Sequence (P18089 whole entry): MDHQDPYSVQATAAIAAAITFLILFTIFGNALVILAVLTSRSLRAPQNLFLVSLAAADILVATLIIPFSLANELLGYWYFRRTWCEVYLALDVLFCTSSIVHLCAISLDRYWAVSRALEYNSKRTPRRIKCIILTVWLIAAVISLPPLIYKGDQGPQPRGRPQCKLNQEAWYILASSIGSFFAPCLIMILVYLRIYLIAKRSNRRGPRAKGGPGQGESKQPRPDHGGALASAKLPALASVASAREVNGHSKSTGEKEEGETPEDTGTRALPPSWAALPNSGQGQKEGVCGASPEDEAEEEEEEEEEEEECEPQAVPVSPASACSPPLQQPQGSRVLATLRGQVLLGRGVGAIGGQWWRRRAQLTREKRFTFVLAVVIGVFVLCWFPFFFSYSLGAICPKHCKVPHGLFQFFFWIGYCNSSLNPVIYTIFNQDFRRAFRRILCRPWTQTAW
- measurement notes: Binding affinity to human adrenergic alpha2B receptor
The entries below come with measured pKi values attached.
FYI, pKi means -log10 of a concentration in mol per litre.

CCCCN1CCC(COC(=O)c2cc(F)c(N)c3c2OCCO3)CC1 | 6.11

Now examine the next entry.
Data request: Note pKi for the compound shown: `CCCCN1CCC(COC(=O)c2cc(Cl)c(NC)c3c2OCCO3)CC1`
Data returned: 6.17

====

- target: Beta-2 adrenergic receptor (Rattus norvegicus, UniProt P10608)
- Sequence (P10608 whole entry): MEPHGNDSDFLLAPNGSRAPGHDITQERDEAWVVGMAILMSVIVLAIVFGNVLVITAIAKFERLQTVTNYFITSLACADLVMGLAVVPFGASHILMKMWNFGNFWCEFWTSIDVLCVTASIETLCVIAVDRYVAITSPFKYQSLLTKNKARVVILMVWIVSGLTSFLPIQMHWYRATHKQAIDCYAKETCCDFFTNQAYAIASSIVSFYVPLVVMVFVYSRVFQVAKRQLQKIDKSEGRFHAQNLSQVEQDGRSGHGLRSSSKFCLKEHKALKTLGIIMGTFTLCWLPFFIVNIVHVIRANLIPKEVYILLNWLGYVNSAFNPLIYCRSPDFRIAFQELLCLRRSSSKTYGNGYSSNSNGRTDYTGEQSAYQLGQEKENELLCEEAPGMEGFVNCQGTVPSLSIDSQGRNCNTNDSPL
- measurement notes: Binding affinity to rat adrenergic beta2 receptor
compounds and their reported Ki

CCCCN1CCC(COC(=O)c2cc(Cl)c(NC)c3c2OCCO3)CC1 | > 10 µM

Kindly consider the entry below.
Data request: Determine from records and report Ki for `CCCCN1CCC(COC(=O)c2ccc(N)c(OC)c2)CC1`
Data returned: > 10 µM

====

- target: UniProt P50406
- Sequence (P50406 whole entry): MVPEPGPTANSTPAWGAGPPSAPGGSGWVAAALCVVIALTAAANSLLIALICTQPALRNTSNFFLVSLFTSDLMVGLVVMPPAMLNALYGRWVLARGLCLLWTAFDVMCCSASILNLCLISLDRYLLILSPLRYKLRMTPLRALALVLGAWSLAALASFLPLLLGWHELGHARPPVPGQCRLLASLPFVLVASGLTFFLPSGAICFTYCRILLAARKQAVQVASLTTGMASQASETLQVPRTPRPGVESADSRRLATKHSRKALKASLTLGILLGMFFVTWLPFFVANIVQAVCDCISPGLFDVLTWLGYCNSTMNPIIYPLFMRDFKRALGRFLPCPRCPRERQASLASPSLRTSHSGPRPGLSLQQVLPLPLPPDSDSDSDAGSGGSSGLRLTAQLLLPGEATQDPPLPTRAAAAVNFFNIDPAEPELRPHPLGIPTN
- measurement notes: Binding affinity to human 5-HT6 receptor
observable: pKi
# pKi: negative log10 of molar concentration; output just the value

Data request: Complete the entry with pKi for `CCCCN1CCC(COC(=O)c2cc(Cl)c(NC)c3c2OCCO3)CC1`
Data returned: 6.31

====

- target: D(1A) dopamine receptor (Rattus norvegicus, UniProt P18901)
- Sequence (P18901 whole entry): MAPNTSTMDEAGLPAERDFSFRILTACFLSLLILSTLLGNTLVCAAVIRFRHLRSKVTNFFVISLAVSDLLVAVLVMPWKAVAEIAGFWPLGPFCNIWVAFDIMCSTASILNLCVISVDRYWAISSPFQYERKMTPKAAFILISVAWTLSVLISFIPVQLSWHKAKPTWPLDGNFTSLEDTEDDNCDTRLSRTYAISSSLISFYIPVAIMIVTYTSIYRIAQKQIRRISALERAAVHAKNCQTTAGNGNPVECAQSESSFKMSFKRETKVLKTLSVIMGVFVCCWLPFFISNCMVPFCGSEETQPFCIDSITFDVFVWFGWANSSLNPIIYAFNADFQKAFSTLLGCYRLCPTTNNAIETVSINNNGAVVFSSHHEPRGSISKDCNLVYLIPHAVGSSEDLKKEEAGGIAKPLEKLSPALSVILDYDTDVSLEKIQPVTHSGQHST
- measurement notes: Binding affinity to rat dopamine D1 receptor
observable: pKi
Remember, pKi is on a log scale: it is -log10 of the molar concentration.

Data request: Give the reported value of pKi for this record: `CCCCN1CCC(COC(=O)c2cc(Cl)c(NC)c3c2OCCO3)CC1`
Data returned: 5.64

====

- target: 5-hydroxytryptamine receptor 4 (Homo sapiens)
- Sequence (Q13639 whole entry): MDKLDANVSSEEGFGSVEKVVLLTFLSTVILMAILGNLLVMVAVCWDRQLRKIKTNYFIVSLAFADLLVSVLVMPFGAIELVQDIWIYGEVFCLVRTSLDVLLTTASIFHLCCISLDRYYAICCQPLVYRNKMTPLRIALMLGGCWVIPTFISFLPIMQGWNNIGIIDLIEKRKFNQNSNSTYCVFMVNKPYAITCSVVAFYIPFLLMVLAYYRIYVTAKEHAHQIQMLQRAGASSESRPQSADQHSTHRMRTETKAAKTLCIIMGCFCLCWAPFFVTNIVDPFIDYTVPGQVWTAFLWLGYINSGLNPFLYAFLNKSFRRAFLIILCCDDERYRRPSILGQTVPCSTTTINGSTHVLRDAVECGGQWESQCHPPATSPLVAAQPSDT
- measurement notes: Displacement of [3H]GR113808 from human recombinant 5HT4 receptor expressed in HEK293 cells
Kindly apply the following: TRUE if Ki is less than 10 nM, FALSE in every other case.

Look over these answered cases.
CCCCN1CCC(COC(=O)c2ccc(N)c(OCF)c2)CC1 | FALSE
CCCCN1CCC(COC(=O)c2cc(C#N)c(N)c3c2OCCO3)CC1 | FALSE
CCCCN1CCC(COC(=O)c2ccc(N)c3c2OCCO3)CC1 | TRUE
CCCCN1CCC(COC(=O)c2ccc(N)c(OCCF)c2)CC1 | FALSE
CCCCN1CCC(COC(=O)c2cc(C#N)c(NC)c3c2OCCO3)CC1 | FALSE

Attention now shifts to the item below.
Data request: I wonder whether `CCCCN1CCC(CNC(=O)c2ccc(N)c(OC)c2)CC1` has Ki below 10 nM. Can you tell?
Data returned: FALSE

====

- target: 5-hydroxytryptamine receptor 7 (Homo sapiens, UniProt P34969)
- Sequence (P34969 whole entry): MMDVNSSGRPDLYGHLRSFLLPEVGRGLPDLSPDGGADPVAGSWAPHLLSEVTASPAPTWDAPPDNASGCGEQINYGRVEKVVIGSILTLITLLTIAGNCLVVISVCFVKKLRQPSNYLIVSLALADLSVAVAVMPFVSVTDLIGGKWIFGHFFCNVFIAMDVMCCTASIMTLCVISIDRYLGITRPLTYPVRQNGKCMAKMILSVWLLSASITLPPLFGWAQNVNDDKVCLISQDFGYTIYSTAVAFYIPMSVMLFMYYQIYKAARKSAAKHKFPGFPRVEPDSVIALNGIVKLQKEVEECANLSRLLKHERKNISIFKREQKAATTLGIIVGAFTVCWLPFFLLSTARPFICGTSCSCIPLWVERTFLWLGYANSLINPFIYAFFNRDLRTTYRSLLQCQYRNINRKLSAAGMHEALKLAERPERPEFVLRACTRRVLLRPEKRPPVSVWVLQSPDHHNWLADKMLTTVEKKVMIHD
observable: Ki (µM)
I only need the number, in µM, no unit after it.

Data request: Using 5-hydroxytryptamine receptor 7 (Homo sapiens, UniProt P34969) as the test system, report measured Ki of `CCCCN1CCC(COC(=O)c2cc(Cl)c(NC)c3c2OCCO3)CC1` .
Data returned: 5.7

====

- target: Histamine H4 receptor (Cavia porcellus, UniProt Q91ZY3)
- Sequence (Q91ZY3 whole entry): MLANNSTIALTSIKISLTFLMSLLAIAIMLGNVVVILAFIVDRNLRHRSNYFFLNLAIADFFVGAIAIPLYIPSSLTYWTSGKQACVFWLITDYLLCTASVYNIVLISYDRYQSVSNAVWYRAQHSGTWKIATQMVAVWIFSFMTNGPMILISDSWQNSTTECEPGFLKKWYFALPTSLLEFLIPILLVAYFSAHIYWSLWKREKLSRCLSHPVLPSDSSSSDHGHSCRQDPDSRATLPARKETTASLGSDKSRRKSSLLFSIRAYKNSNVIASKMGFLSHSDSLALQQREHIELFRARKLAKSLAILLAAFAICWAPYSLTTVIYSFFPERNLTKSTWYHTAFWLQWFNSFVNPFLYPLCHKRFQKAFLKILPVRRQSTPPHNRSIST
observable: Ki

CCCCN1CCC(COC(=O)c2cc(Cl)c(NC)c3c2OCCO3)CC1 | > 10 µM

Read the next record carefully.
Data request: Output Ki of `CCCCN1CCC(COC(=O)c2ccc(N)c(OC)c2)CC1`
Data returned: > 10 µM

====

- target: UniProt P28221
- Sequence (P28221 whole entry): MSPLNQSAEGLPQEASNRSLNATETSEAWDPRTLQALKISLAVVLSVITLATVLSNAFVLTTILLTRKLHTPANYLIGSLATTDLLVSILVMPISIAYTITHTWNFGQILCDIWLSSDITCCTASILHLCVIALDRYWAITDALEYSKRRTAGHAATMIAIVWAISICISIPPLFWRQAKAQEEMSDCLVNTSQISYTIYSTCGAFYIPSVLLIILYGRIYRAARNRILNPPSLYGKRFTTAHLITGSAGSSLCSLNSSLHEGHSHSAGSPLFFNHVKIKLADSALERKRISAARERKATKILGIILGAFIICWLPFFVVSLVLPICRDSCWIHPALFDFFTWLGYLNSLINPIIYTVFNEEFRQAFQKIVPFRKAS
# key: entry, value: Ki
Respond with a number, then the unit of measure.

# example entries with known answers
CCCCN1CCC(COC(=O)c2cc(F)c(N)c3c2OCCO3)CC1 | 2860 nM
CCCCN1CCC(COC(=O)c2ccc(N)c(OC)c2)CC1 | 5690 nM

Would you kindly look at the next entry?
Data request: # return recorded Ki for input `CCCCN1CCC(COC(=O)c2cc(Cl)c(NC)c3c2OCCO3)CC1`
Data returned: 1300 nM
